Tested on: MDA-MB-435 melanoma
Assay: NCI-60 one-dose screen, 48 h
Settings: 10 µM unless noted
The panel holds about 83,000 compounds, 20% with a hit somewhere; the sample as a whole holds those more often. Calls of active or inactive are those of the source. Rule for the calls: active = growth percent below 10; inactive = the rest.
Select the correct class. Options are class 1 for active, class 0 for inactive and nothing else.

Answered cases to consult:
{"columns": ["Input smiles", "Class label"],
 "data": [
  ["CC/C=C/C/C=C/C/C=C/C/C=C/C/C=C/C/C=C/CCC(=O)Nc1ccn([C@@H]2O[C@H](CO)[C@@H](O)C2(F)F)c(=O)n1", "class 0"],
  ["CCc1c2c(nc3ccc(OC(=O)NCc4ccc(B5OC(C)(C)C(C)(C)O5)cc4)cc13)-c1cc3c(c(=O)n1C2)COC(=O)[C@]3(O)CC", "class 1"],
  ["CC(=O)c1ccc(NCC(=O)Nc2ccccn2)cc1", "class 0"]
]}

Per the assay record, what outcome was assigned to CCOC(=O)c1c(/C=C/C(=O)O)nc2ccccc2c1/C=C/c1ccccc1 ? class 0

// return assay outcome for CC/C=C\C[C@H](O)C/C=C1/C(=O)C=C[C@@H]1C/C=C\CCCCO class 1

Each molecule tested received a call. Report the one for Cc1ccc2[nH]c(=O)c3c(c2c1)OC(N)=C(C#N)C31c2cc(Br)ccc2-c2ccc(Br)cc21 . class 0

Could you check what this test reported for CNC(=O)c1cc(Oc2ccc3nc(Nc4ccc(Cl)c(C(F)(F)F)c4)ccc3c2)ccn1 ? class 0

Outcome logged for C=CCn1c(C)nc2cc(Nc3nc(Cl)nc4ccccc34)ccc21 in this assay: class 0

For this molecule, state the assay outcome: CCN1CCN(c2nc(C)cc(NCc3cc(Nc4ccnc5cc(Cl)ccc45)ccc3F)n2)CC1 class 1

====

Test system: U251 CNS
Experiment: NCI-60 one-dose screen, 48 h (100 = growth as untreated, 0 = no growth, -100 = all killed)
Conditions: 10 µM unless noted
About 83,000 compounds went through this panel and 20% of them were active in at least one assay; those are over-represented in the sample as a whole.
Assay endpoint: growth (%)
Numeric answer only, unit % assumed.

Sample records with growth:
{"columns": ["Compound", "growth / %"],
 "data": [
  ["CC1=NOC(=O)/C1=C\\c1ccc(O)cc1", 101],
  ["Fc1c[c-]c(-c2ccccn2)c(F)c1.[CH3-].[Pt+2].c1ccc(P(C[PH+](c2ccccc2)c2ccccc2)c2ccccc2)cc1", -71.7],
  ["COc1ccc(-c2nc(SCCC(C)C)nc(N/N=C\\c3cccc([N+](=O)[O-])c3)c2C#N)cc1", 8.23],
  ["CC1(C)OC2C(CO[Si](C)(C)C(C)(C)C)OC(n3c(I)c(C#C[Si](C)(C)C)c(=O)[nH]c3=O)C2O1 (stereo not given)", 88.4],
  ["COc1cc(/C=N/n2c(CN3CCOCC3)nc3ccccc3c2=O)cc(OC)c1OC", 98.7]
]}

Case CCOC(=O)c1c2ncccc2n2c(=O)n(-c3ccccc3C)nnc12 , U251 CNS, growth recorded as 105

Simply: Cc1cc(Cl)nc(NCc2cc(Nc3ccnc4cc(Cl)ccc34)ccc2F)n1 , U251 CNS, growth = 48.9

Bench note, U251 CNS: CCN(CC)CCCC(C)Nc1c2ccc(Cl)cc2nc2ccc(O)cc12 (stereo not given) , growth reads 32.5

Record for COc1cccc(-c2nn(-c3ccccc3)cc2-c2ccnc(NCCNC(=O)c3ccccc3)c2)c1 under target or system U251 CNS: growth reported as 47.9

Entry O=C(O)c1ccc2c(c1)CCC2 , U251 CNS data, growth value: 104
